Test system: MS2 coat protein
PROTOCOL DETAILS: apparent KD of MS2 coat protein; designed switch direction (-1 OFF switch, 1 ON switch): -1; higher = weaker reporter binding
ASSAY CONTEXT: Eterna round: R95; input ligand: microRNA oligo, concentration not stated
Everything with apparent KD of MS2 coat protein lower than 30 nM is f; everything else, including exactly 30 nM, is t.

Answered cases to consult:
CUUUUGUGAGGAUAUCAGUAGUAAAUAAAUAAAUUAACUACUGAGAAGGCACAUGAGGAUCACCCAUGUUCCUU [Mat - Exclusion 4 - Mod of Salish - D65] (puzzle: Exclusion 4) ... f
CAGUACUGAGGAUAUACAUGAGGAUCACCCAUGUGCUUUAGCUAGGAUACUAGCAUCAGUAGAAGGCAGUACUG [Fiskers Ex 3 828 mod 11] (puzzle: Exclusion 3) ... f
GGAAAACAUGAGGAUCACCCAUGUGAGGAUAUGCGUACGUUGUCCGUAGGCGACGUGCGCAGAAGGCGCAAGAG [Mat - Mod of JL D89] (puzzle: Exclusion 1) ... t
AGUAACUAUCACGAAAGUGAUAGUUACACAAGCAGUGAAACAUGAGGAUCACCCAUGUCCUCAUAUGCUCGUCUUAU [Sensor 3 - 30] (puzzle: Sensor v3, turn-off variant 2) ... t
ACGCAACAUGAGGAUCACCCAUGUGAGGAUAUGUAAAUAGUAAACAAAUAGGAAAUGAACAGAAGGCACACCGG [JR_Exclusion1_Sub005] (puzzle: Exclusion 1) ... t

Ask | Does the reported apparent KD of MS2 coat protein for GUUAGACAUGAGGAUCACCCAUGUGAGGAUAUGAUGUGAAUAAAUAAUUAAUUAAGUAUCAGAAGGCACAUAUG [Mat - Mod of Hyphema D32] (puzzle: Exclusion 1) fall at or above the 30 nM mark?
Reply | t

Ask | apparent KD of MS2 coat protein >= 30 nM for UUUCGGCGGACCGUGGCUUUUUGCUCGUCUUAUGCUACGACAUGAGGAUCACCCAUGUGGUGGUGGUCCGUUGUUGU [Grok-var2-11 mod JAL] (puzzle: Sensor v3, turn-off variant 2) ?
Reply | f

Ask | Does CUAGUCCGAGGAUAUAUAUUGUGAAACAUGAGGAUCACCCAUGUUAUAAUAUGGAAAUAAAUAGAAGGCGGACUAG [Mat - Exclusion 5 - JL mod - D57] (puzzle: Exclusion 5) have a reported apparent KD of MS2 coat protein of at least 30 nM?
Reply | t

Ask | Record UGGGAACGAGGAUAUCGAUGGUGGAACAUGAGGAUCACCCAUGUAUGAGAUAGUGUAGUUCGAGAAGGCGUUAAGU [JR_E5_Sub053] (puzzle: Exclusion 5) ; criterion: apparent KD of MS2 coat protein no lower than 30 nM. Met?
Reply | t

Ask | Assess whether reported apparent KD of MS2 coat protein for AGAUGUAGAUACCGGUCCUACAUGAGGAUCACCCAUGUAGCUUGACGUGCGGGCGGCGCUCGUCGGUCUACCAGUAG [salish99_TOv1_r3_100] (puzzle: Sensor v3, turn-off variant 1) sits at 30 nM or higher.
Reply | f

Ask | API: above_or_equal(metric=apparent KD of MS2 coat protein, cutoff=30 nM) for item AGUACUAACACGAAAGUGUUAGUACUAUAAGCUUGUGAAACAUGAGGAUCACCCAUGUCCUCAUAAGCUCGUCUUAU [Mat - Sensor v3 - Turn-off var 2 - D102] (puzzle: Sensor v3, turn-off variant 2)
Reply | t

Ask | Reported apparent KD of MS2 coat protein at or above 30 nM? GGGAUGUGAGGAUAUCGAGGUGCAAAGCACCUAAAAGAAAACGAGAAGGCACAUGAGGAUCACCCAUGUAAUAC [Xeinle] (puzzle: Exclusion 4)
Reply | f

Ask | Evaluate UUUUUGUCAGGAUAUGAGUAGUAGUACUAUUGUUUUAUUAUUUAGAAGGGACAUGAGGAUCACCCAUGUUUCUC [Bring Us a Shrubbery-01] (puzzle: Exclusion 4) : apparent KD of MS2 coat protein at minimum 30 nM?
Reply | f

Ask | Tell me whether apparent KD of MS2 coat protein is at least 30 nM here: AGUACUAACACCGUUGUGUUAGUACAAUAAGCUUGUGAAACAUGAGGAUCACCCAUGUCCUCAUAAGCUCGUCUUAU [salish99_TOv2_r3_071] (puzzle: Sensor v3, turn-off variant 2)
Reply | t
